Items are presented alongside their recorded SPOT peptide array binding signal intensity.
# System Name: SpLsb4
# Test Details: SPOT peptide array binding signal intensity (averaged, normalized) (arbitrary units (background-subtracted, floor 0; scale differs between SH3 domains)); higher = stronger binding of the SH3 domain to the peptide
Quantity Kind: SPOT peptide array binding signal intensity

> print(dat)
            binder  qualifier.sign  readout.value
1  DLFKPLPEPPTELGR               ≤              0
2  HPRFVSPRIPSRIVK               =           2670
3  DGNEEKPLLPTRPNK               =           3290
4  NSMRPPLLIPAATTK               =            761
